Experiment: NCI Yeast Anticancer Drug Screen. Data for the bub3 strain (AID 167)
Conditions: S. cerevisiae bub3 mutant strain, at 50.0 µM
Description: Growth inhibition of yeast strains with defined genetic alterations is measured as a screen for potential anti-cancer activity. Selected strains with alterations in DNA damage repair or cell cycle control were exposed to compounds and growth inhibition was measured relative to vehicle treated controls. The strain used in this assay is bub3
Compounds without any hit were thinned out: in the full panel of roughly 79,000, 15% have a hit. Activity calls are given as the source filed them. Cut-off read from the data, not from the text of the source: active = growth inhibition above about 70%; inactive = the rest.
Lab note: assign the record to one of label 1 for active, label 0 for inactive

query: I would be grateful if you could indicate the recorded call for NC(=O)N/N=C/C(O)C(O)C(O)C(O)CO (centres undefined) .
result: label 0

query: I would be grateful if you could indicate the recorded call for COc1ccc(-c2cc(-c3ccco3)c(C#N)c(=S)n2C2OC(CO)C(O)C(O)C2O)cc1 (centres undefined) .
result: label 0

query: I would be grateful if you could indicate the recorded call for Cc1ccc(C)c(C2CCCCC2O)c1 (centres undefined) .
result: label 0

query: I would be grateful if you could indicate the recorded call for CN(NC(=O)CC(=O)NN(C)C(=S)c1ccccc1)C(=S)c1ccccc1 .
result: label 1

query: I would be grateful if you could indicate the recorded call for NCC(CS)C(=O)NC(CS)C(=O)NC(CS)C(=O)NCCNc1ccc(NCCNC(=O)C(CS)NC(=O)C(CS)NC(=O)C(CN)CS)c2c1C(=O)c1c(O)ccc(O)c1C2=O (centres undefined) .
result: label 0

query: I would be grateful if you could indicate the recorded call for CC[N-]c1nncs1.CC[N-]c1nncs1.CC[N-]c1nncs1.CC[N-]c1nncs1.[Cl][Rh][Cl] .
result: label 1

query: I would be grateful if you could indicate the recorded call for c1ccc(-c2c[nH]c(-c3ccccc3)c2-c2ccccc2)cc1 .
result: label 1

query: I would be grateful if you could indicate the recorded call for O=C(NC(OCc1ccccc1)(C(F)(F)F)C(F)(F)F)OCc1ccccc1 .
result: label 1

query: I would be grateful if you could indicate the recorded call for CC(C)=NOc1ccc([N+](=O)[O-])cc1[N+](=O)[O-] .
result: label 0

query: I would be grateful if you could indicate the recorded call for Cc1ccc(-n2cc(-c3ccc(Cl)cc3)c3c(NN)ncnc32)cc1 .
result: label 1

query: I would be grateful if you could indicate the recorded call for C/C(=C/C(=O)/C=C/c1ccccc1)c1c(C)[nH]c2ccccc12 .
result: label 1

query: I would be grateful if you could indicate the recorded call for Nc1nc(-c2ccccc2)c(N=Nc2c(Cl)cccc2Cl)s1 .
result: label 1

query: I would be grateful if you could indicate the recorded call for O=C1C=CC(=O)N1c1ccc(-c2nc3ccccc3o2)cc1 .
result: label 1

query: I would be grateful if you could indicate the recorded call for ON1CCc2c([nH]c3ccccc23)C1c1ccc(Cl)cc1 (centres undefined) .
result: label 0
